As shown below, each of these compounds has a reported Uptake Muscle, Mean value.
# System: 22Rv1 tumor-bearing mice
# test description: Biodistribution in 22Rv1 tumor-bearing mice
# test parameters: 60 min p.i., 0.74 MBq, n = 3
Answer in ID%/g, number only, no unit symbol.

Use the examples below as a reference point.
>  <compound>
O=C([O-])CN1CCN(CC(=O)[O-])CCN(CC(=O)NCc2ccc(C(=O)NC(Cc3cnc4ccccc4c3)C(=O)NCCCCC(NC(=O)NC(CCC(=O)O)C(=O)O)C(=O)O)cc2)CCN(CC(=O)O)CC1.[68Ga+3] (stereo not drawn) [[^68Ga]Ga-PSMA-Q-3]

>  <value kind>
Uptake Muscle, Mean

>  <unit spec>
ID%/g

>  <reported result>
0.19

$$$$
>  <compound>
O=C([O-])CN1CCN(CC(=O)[O-])CCN(CC(=O)NCCCCC(=O)NC(Cc2cnc3ccccc3c2)C(=O)NCCCCC(NC(=O)NC(CCC(=O)O)C(=O)O)C(=O)O)CCN(CC(=O)O)CC1.[68Ga+3] (stereo not drawn) [[^68Ga]Ga-PSMA-Q-1]

>  <value kind>
Uptake Muscle, Mean

>  <unit spec>
ID%/g

>  <reported result>
0.09

$$$$

# input for lookup
Any idea what its Uptake Muscle, Mean is? The compound is O=C([O-])CN1CCN(CC(=O)[O-])CCN(CC(=O)NCC2CCC(C(=O)NC(Cc3ccc4ccccc4c3)C(=O)NCCCCC(NC(=O)NC(CCC(=O)O)C(=O)O)C(=O)O)CC2)CCN(CC(=O)O)CC1.[68Ga+3] (stereo not drawn) [[^68Ga]Ga-PSMA-617, reference compound]
0.15
